- target-system: CaMK1 (human)
- assay-summary: radiometric filter-binding kinase assay
- recorded-conditions: compound 10.0 µM
outcome-measure: residual activity (%)

| smiles-record | target-system | outcome-measure | unit-symbol | recorded-value |
| --- | --- | --- | --- | --- |
| Cc1ccc(-c2ccc3c(ccc4sc5c(c43)NC[C@@H](C)NC5=O)n2)cn1 | CaMK1 (human) | residual activity | % | 68 |

1 = CNc1nc(-c2ccc3c(N)n[nH]c3c2)cc(N2C[C@@H](C(=O)NC3CCCCC3)CC[C@H]2C)n1
2 = NC(=O)c1cc(-c2ccnc(NC3CCCCC3)c2)nc(N2CCNCC2)c1
3 = O=c1c(O)c(-c2ccc(O)c(O)c2)oc2cc(O)c(O)c(O)c12
Prompt: Arrange the 3 entries by residual activity so the values rise. As an answer, provide the labels arranged in the order called for.
Completion: 2, 3, 1

Origin of measurements: the kinase profiling compilation of Christmann-Franck et al. (2016)
